B1: H2-Kb / Ed21 (parent complex)
chain 1: AQSVTQPDARVTVSEGASLQLRCKYSYFGTPYLFWYVQYPRQGLQLLLKYYPGDPVVQGVNGFEAEFSKSNSSFHLRKASVHWSDWAVYFCAVSMSGGYKVVFGSGTRLLVSP
chain 2: DSGVVQSPRHIIKEKGGRSVLTCIPISGHSNVVWYQQTLGKELKFLIQHYEKVERDKGFLPSRFSVQQFDDYHSEMNMSALELEDSAMYFCASSPRQTDYTFGSGTRLLVI
chain 3: not shown
chain 4: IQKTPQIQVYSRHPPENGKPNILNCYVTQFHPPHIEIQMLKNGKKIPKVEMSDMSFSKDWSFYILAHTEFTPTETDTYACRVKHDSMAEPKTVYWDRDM
chain 5: SIINFEKL

variants of: B1; experiment: % of reporter cells activated (NFAT-GFP), raw; note: test concentration or dose not given here
Note to self: ratio to parent under 0.9 means met, ties and anything higher get not met.

In plain terms, does chain 5 F5C come in under 0.9 for ratio to parent?
not met

In plain terms, does chain 5 S1E come in under 0.9 for ratio to parent?
not met

In plain terms, does chain 5 I3R come in under 0.9 for ratio to parent?
met

In plain terms, does chain 5 L8R come in under 0.9 for ratio to parent?
not met
